tested on: NCI-H23 lung; experiment: NCI tumour cell line growth inhibition, 48 h
Class Yes: TGI at least 90 µM. Class No: TGI below 90 µM.

{"compound": "O=C1c2c(ccc3c2CCC3)CC1Cc1ccc2c(c1)CCC2 (stereo not given)", "classification": "No"}
{"compound": "O=C1c2c(Br)sc(Br)c2[C@@H](Cl)[C@H]1Cl", "classification": "Yes"}
{"compound": "CC(C)=Cc1cc(C)c2c3c(c(O)c(O)c(C)c13)C(C)=CC2=O", "classification": "No"}
{"compound": "Cc1c(O)c(OC2OC(CO)C(O)C(O)C2O)cc2c1CC[C@@H]1C2(C)C(=O)C[C@]2(C)[C@@H]([C@@](C)(O)C3CCC(C)(C)O3)[C@H](O)C[C@@]12C (stereo not given in full)", "classification": "Yes"}
{"compound": "COc1ccc2c3c([nH]c(=O)c2c1C(=O)O)-c1ccccc1CC3", "classification": "Yes"}
{"compound": "O=S(=O)(O)c1cc(S(=O)(=O)O)c2cc(N=Nc3c(O)ccc4ccccc34)ccc2c1", "classification": "Yes"}
{"compound": "CCOC(=O)C(=O)Nc1cc(Cl)c(Cl)cc1Cl", "classification": "Yes"}
{"compound": "CCC(=O)NI1OC(=O)c2ccccc21", "classification": "Yes"}
{"compound": "COC(=O)C1CCC(=O)N1CN(C(C)=O)c1cc(OC)ccc1OC (stereo not given)", "classification": "Yes"}
{"compound": "COc1cc(-n2cc(-c3ccccc3)[nH]c2=O)cc(OC)c1OC", "classification": "Yes"}
{"compound": "O=[N+]([O-])C1=Cc2cc(Cl)ccc2OC1c1cccc2ccccc12 (stereo not given)", "classification": "No"}
{"compound": "COc1ccc(/C(C)=N/NC(=O)CSc2nc3ccccc3c(=O)n2CCc2ccc(S(N)(=O)=O)cc2)cc1", "classification": "No"}
{"compound": "NCCCOc1cc2ccccc2cc1C(=O)Nc1ccc(Cl)cc1OC(=O)c1cc2ccccc2cc1OCCCN", "classification": "No"}
{"compound": "Cc1cc(N(CCC#N)CCC#N)ccc1N=Nc1cc(Cl)ccc1Cl", "classification": "No"}
{"compound": "C[C@@H](CC(=O)O)OC1OC(COC(=O)C(C)(C)C)C(OC(=O)C(C)(C)C)C(OC(=O)C(C)(C)C)C1OC(=O)C(C)(C)C (stereo not given in full)", "classification": "Yes"}
{"compound": "CCO/S(=N/S(=O)(=O)c1ccccc1)c1ccccc1[N+](=O)[O-] (stereo not given)", "classification": "Yes"}
{"compound": "CCC/C=C\\C=C\\C1(NS(=O)(=O)c2ccc(C)cc2)CCC(C(C)(C)C)CC1 (stereo not given)", "classification": "No"}
